Data provenance is PubChem BioAssay (NCATS).

testedOn: Cytochrome P450 1A2 (Homo sapiens) (UniProt P05177)
Sequence (P05177 whole entry, looked up): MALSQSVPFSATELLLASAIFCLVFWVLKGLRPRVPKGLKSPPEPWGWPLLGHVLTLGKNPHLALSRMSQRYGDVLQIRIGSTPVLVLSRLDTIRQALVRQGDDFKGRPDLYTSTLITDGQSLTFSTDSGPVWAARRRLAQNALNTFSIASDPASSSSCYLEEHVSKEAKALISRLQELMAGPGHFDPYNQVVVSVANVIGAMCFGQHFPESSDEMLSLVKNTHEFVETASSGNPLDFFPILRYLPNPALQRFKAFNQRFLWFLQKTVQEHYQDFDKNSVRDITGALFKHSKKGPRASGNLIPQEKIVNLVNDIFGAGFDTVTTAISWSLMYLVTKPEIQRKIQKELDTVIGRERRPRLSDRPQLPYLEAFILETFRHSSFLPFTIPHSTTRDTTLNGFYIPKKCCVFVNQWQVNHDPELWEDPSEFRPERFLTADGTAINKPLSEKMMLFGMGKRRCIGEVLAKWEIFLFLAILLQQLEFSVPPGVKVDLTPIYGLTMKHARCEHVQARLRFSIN
methodNotes: p450-cyp1a2 (AID 410); further: potency means the concentration at half of the fitted maximal effect
conditionSet: recombinant CYP1A2, luciferin-ME demethylation, luminescence; series mostly up to 57 µM
Inconclusive results are not listed. Activity calls are given as the source filed them. The call rests on the fitted dose curve.
recordedEndpoint: Potency

Example results:
CNC(=O)[C@H](C)[C@@H]1C[C@@]1(C)[C@@H](NC(=O)OCc1ccccc1)c1ccccc1; 20 µM (active)
O=c1c(O)c(-c2ccc(O)c(O)c2)oc2ccccc12; 0.251 µM (active)
COC(=O)[C@H]1C[C@@H]1[C@H](NC(=O)c1cc(C)nn1C)c1ccccc1; 20 µM (active)

Measured Potency, "COCCNc1nc(-c2ccc(N(C)C)cc2)nc2ccccc12" : 0.631 µM (active)

Measured Potency, CCC/C=C(\CCC)C(NS(=O)(=O)c1ccccc1)c1ccc(C(F)(F)F)cc1 (stereo not given) : 12.6 µM (active)
